- Test system: ABC-1
- assay_method_text: relative viability (nuclei count vs DMSO), 5 days (fraction); higher = more cells survive
- assay_conditions: first compound 0.05 µM
Measured relative viability, listed per entry for reference.

- compound: "Nc1ccn([C@@H]2O[C@H](CO)[C@@H](O)[C@@H]2O)c(=O)n1 [Cytarabine] + O=C(CCCCCCC(=O)Nc1ccccc1)NO [Vorinostat] (partner 1 µM)"
  relative viability: 0.972
- compound: "COc1cc2nccc(Oc3ccc(NC(=O)Nc4cc(C)on4)c(Cl)c3)c2cc1OC [Tivozanib] + CS(=O)(=O)N1CCN(Cc2cc3nc(-c4cccc5[nH]ncc45)nc(N4CCOCC4)c3s2)CC1 [Pictilisib] (partner 1 µM)"
  relative viability: 0.794
- compound: "COc1cc2nccc(Oc3ccc(NC(=O)Nc4cc(C)on4)c(Cl)c3)c2cc1OC [Tivozanib] + COc1cc2c(Oc3ccc(NC(=O)C4(C(=O)Nc5ccc(F)cc5)CC4)cc3F)ccnc2cc1OCCCN1CCOCC1 [Foretinib] (partner 0.25 µM)"
  relative viability: 1

* * *

- System: NCI-H1755
- assay_method_text: relative viability (nuclei count vs DMSO), 5 days (fraction); higher = more cells survive
- assay_conditions: first compound 0.04 µM
Measured relative viability, listed per entry for reference.
measurement_name: relative viability

- compound: "Cc1sc2c(c1C)C(c1ccc(Cl)cc1)=N[C@@H](CC(=O)OC(C)(C)C)c1nnc(C)n1-2 [JQ1] + N=C(N)NC(=N)NCCc1ccccc1 [Phenformin] (partner 250 µM)"
  assay_target: "NCI-H1755"
  recorded_value: 0.687
- compound: "Cc1sc2c(c1C)C(c1ccc(Cl)cc1)=N[C@@H](CC(=O)OC(C)(C)C)c1nnc(C)n1-2 [JQ1] + CC(=O)Nc1cccc(-n2c(=O)n(C3CC3)c(=O)c3c(Nc4ccc(I)cc4F)n(C)c(=O)c(C)c32)c1 [Trametinib] (partner 0.02 µM)"
  assay_target: "NCI-H1755"
  recorded_value: 0.796
- compound: "Cc1sc2c(c1C)C(c1ccc(Cl)cc1)=N[C@@H](CC(=O)OC(C)(C)C)c1nnc(C)n1-2 [JQ1] + COc1cccc2cc(-c3nc([C@H]4CC[C@H](C(=O)O)CC4)n4ncnc(N)c34)[nH]c12 [OSI-027] (partner 0.5 µM)"
  assay_target: "NCI-H1755"
  recorded_value: 0.758
- compound: "Cc1sc2c(c1C)C(c1ccc(Cl)cc1)=N[C@@H](CC(=O)OC(C)(C)C)c1nnc(C)n1-2 [JQ1] + CC(C)C[C@H](NC(=O)[C@H](Cc1ccccc1)NC(=O)c1cnccn1)B(O)O [Bortezomib] (partner 0.002 µM)"
  assay_target: "NCI-H1755"
  recorded_value: 0.923
- compound: "Cc1sc2c(c1C)C(c1ccc(Cl)cc1)=N[C@@H](CC(=O)OC(C)(C)C)c1nnc(C)n1-2 [JQ1] + O=C(CCCCCCC(=O)Nc1ccccc1)NO [Vorinostat] (partner 1 µM)"
  assay_target: "NCI-H1755"
  recorded_value: 0.822
- compound: "Cc1sc2c(c1C)C(c1ccc(Cl)cc1)=N[C@@H](CC(=O)OC(C)(C)C)c1nnc(C)n1-2 [JQ1] + NC(=O)Nc1cc(-c2cccc(F)c2)sc1C(=O)N[C@H]1CCCNC1 [AZD7762] (partner 0.2 µM)"
  assay_target: "NCI-H1755"
  recorded_value: 0.533
- compound: "Cc1sc2c(c1C)C(c1ccc(Cl)cc1)=N[C@@H](CC(=O)OC(C)(C)C)c1nnc(C)n1-2 [JQ1] + CS(=O)(=O)CCNCc1ccc(-c2ccc3ncnc(Nc4ccc(OCc5cccc(F)c5)c(Cl)c4)c3c2)o1 [Lapatinib] (partner 2 µM)"
  assay_target: "NCI-H1755"
  recorded_value: 1.06

* * *

- Tested on: BEN
- assay_method_text: relative viability (nuclei count vs DMSO), 5 days (fraction); higher = more cells survive
- assay_conditions: first compound 5 µM
measurement_name: relative viability

- molecule: "O=C(O)CCCCC(CCSCc1ccccc1)SCc1ccccc1 (stereo not drawn) [CPI-613] + O=C(c1cc(Cc2n[nH]c(=O)c3ccccc23)ccc1F)N1CCN(C(=O)C2CC2)CC1 [Olaparib] (partner 8 µM)"
  recorded_value: 1.09
- molecule: "O=C(O)CCCCC(CCSCc1ccccc1)SCc1ccccc1 (stereo not drawn) [CPI-613] + NC(=O)Nc1cc(-c2cccc(F)c2)sc1C(=O)N[C@H]1CCCNC1 [AZD7762] (partner 0.2 µM)"
  recorded_value: 0.653
- molecule: "O=C(O)CCCCC(CCSCc1ccccc1)SCc1ccccc1 (stereo not drawn) [CPI-613] + CS(=O)(=O)CCNCc1ccc(-c2ccc3ncnc(Nc4ccc(OCc5cccc(F)c5)c(Cl)c4)c3c2)o1 [Lapatinib] (partner 2 µM)"
  recorded_value: 0.673

* * *

- Test system: NCI-H650
- assay_method_text: relative viability (nuclei count vs DMSO), 5 days (fraction); higher = more cells survive
- assay_conditions: first compound 0.8 µM
Consider the cut-off 0.8. If the recorded relative viability is strictly smaller, the label is 1; if not, the label is -1.

- molecule: "Cc1cnc(-c2cnc(NCCNc3ccc(C#N)cn3)nc2-c2ccc(Cl)cc2Cl)[nH]1 + Nc1nc2[nH]cc(CCc3ccc(C(=O)N[C@@H](CCC(=O)O)C(=O)O)cc3)c2c(=O)[nH]1 [Pemetrexed] (partner 0.2 µM)"
  assigned_category: -1
- molecule: "O=c1[nH]c2ccccc2n1C1CCN(CCCC(c2ccc(F)cc2)c2ccc(F)cc2)CC1 [Pimozide] + Cc1nc(Nc2ncc(C(=O)Nc3c(C)cccc3Cl)s2)cc(N2CCN(CCO)CC2)n1 [Dasatinib] (partner 0.075 µM)"
  assigned_category: 1
- molecule: "O=c1[nH]c2ccccc2n1C1CCN(CCCC(c2ccc(F)cc2)c2ccc(F)cc2)CC1 [Pimozide] + CC(=O)c1c(C)c2cnc(Nc3ccc(N4CCNCC4)cn3)nc2n(C2CCCC2)c1=O [Palbociclib] (partner 0.5 µM)"
  assigned_category: 1
- molecule: "Cc1cnc(-c2cnc(NCCNc3ccc(C#N)cn3)nc2-c2ccc(Cl)cc2Cl)[nH]1 + CS(=O)(=O)N1CCN(Cc2cc3nc(-c4cccc5[nH]ncc45)nc(N4CCOCC4)c3s2)CC1 [Pictilisib] (partner 1 µM)"
  assigned_category: -1
- molecule: "Cc1cnc(-c2cnc(NCCNc3ccc(C#N)cn3)nc2-c2ccc(Cl)cc2Cl)[nH]1 + O=C(CCCCCCC(=O)Nc1ccccc1)NO [Vorinostat] (partner 1 µM)"
  assigned_category: 1
- molecule: "Cc1cnc(-c2cnc(NCCNc3ccc(C#N)cn3)nc2-c2ccc(Cl)cc2Cl)[nH]1 + CCNC(=O)c1noc(-c2cc(C(C)C)c(O)cc2O)c1-c1ccc(CN2CCOCC2)cc1 [Luminespib] (partner 0.01 µM)"
  assigned_category: 1
- molecule: "Cc1cnc(-c2cnc(NCCNc3ccc(C#N)cn3)nc2-c2ccc(Cl)cc2Cl)[nH]1 + Nc1ncn([C@H]2C[C@H](O)[C@@H](CO)O2)c(=O)n1 [Decitabine] (partner 2 µM)"
  assigned_category: 1
- molecule: "O=c1[nH]c2ccccc2n1C1CCN(CCCC(c2ccc(F)cc2)c2ccc(F)cc2)CC1 [Pimozide] + NC(=O)Nc1cc(-c2cccc(F)c2)sc1C(=O)N[C@H]1CCCNC1 [AZD7762] (partner 0.2 µM)"
  assigned_category: -1
- molecule: "Cc1cnc(-c2cnc(NCCNc3ccc(C#N)cn3)nc2-c2ccc(Cl)cc2Cl)[nH]1 + CC(=O)c1c(C)c2cnc(Nc3ccc(N4CCNCC4)cn3)nc2n(C2CCCC2)c1=O [Palbociclib] (partner 0.5 µM)"
  assigned_category: 1
- molecule: "Cc1cnc(-c2cnc(NCCNc3ccc(C#N)cn3)nc2-c2ccc(Cl)cc2Cl)[nH]1 + CS(=O)(=O)CCNCc1ccc(-c2ccc3ncnc(Nc4ccc(OCc5cccc(F)c5)c(Cl)c4)c3c2)o1 [Lapatinib] (partner 2 µM)"
  assigned_category: 1
- molecule: "O=c1[nH]c2ccccc2n1C1CCN(CCCC(c2ccc(F)cc2)c2ccc(F)cc2)CC1 [Pimozide] + CCNC(=O)c1noc(-c2cc(C(C)C)c(O)cc2O)c1-c1ccc(CN2CCOCC2)cc1 [Luminespib] (partner 0.01 µM)"
  assigned_category: -1

* * *

Measured relative viability, listed per entry for reference.
- System: HCC-827
- assay_method_text: relative viability (nuclei count vs DMSO), 5 days (fraction); higher = more cells survive
- assay_conditions: first compound 0.1581 µM
measurement_name: relative viability

- compound: "Nc1ccn([C@@H]2O[C@H](CO)[C@@H](O)[C@@H]2O)c(=O)n1 [Cytarabine] + Cc1nc(Nc2ncc(C(=O)Nc3c(C)cccc3Cl)s2)cc(N2CCN(CCO)CC2)n1 [Dasatinib] (partner 0.075 µM)"
  recorded_value: 0.226
- compound: "Nc1ccn([C@@H]2O[C@H](CO)[C@@H](O)[C@@H]2O)c(=O)n1 [Cytarabine] + CS(=O)(=O)N1CCN(Cc2cc3nc(-c4cccc5[nH]ncc45)nc(N4CCOCC4)c3s2)CC1 [Pictilisib] (partner 1 µM)"
  recorded_value: 0.474
- compound: "COc1cc2nccc(Oc3ccc(NC(=O)Nc4cc(C)on4)c(Cl)c3)c2cc1OC [Tivozanib] + N=C(N)NC(=N)NCCc1ccccc1 [Phenformin] (partner 250 µM)"
  recorded_value: 0.43
- compound: "COc1cc2nccc(Oc3ccc(NC(=O)Nc4cc(C)on4)c(Cl)c3)c2cc1OC [Tivozanib] + COc1cccc2cc(-c3nc([C@H]4CC[C@H](C(=O)O)CC4)n4ncnc(N)c34)[nH]c12 [OSI-027] (partner 0.5 µM)"
  recorded_value: 0.621
- compound: "Nc1ccn([C@@H]2O[C@H](CO)[C@@H](O)[C@@H]2O)c(=O)n1 [Cytarabine] + CCNC(=O)c1noc(-c2cc(C(C)C)c(O)cc2O)c1-c1ccc(CN2CCOCC2)cc1 [Luminespib] (partner 0.01 µM)"
  recorded_value: 0.154
- compound: "COc1cc2nccc(Oc3ccc(NC(=O)Nc4cc(C)on4)c(Cl)c3)c2cc1OC [Tivozanib] + CC(=O)c1c(C)c2cnc(Nc3ccc(N4CCNCC4)cn3)nc2n(C2CCCC2)c1=O [Palbociclib] (partner 0.5 µM)"
  recorded_value: 0.448
- compound: "Nc1ccn([C@@H]2O[C@H](CO)[C@@H](O)[C@@H]2O)c(=O)n1 [Cytarabine] + CC(=O)Nc1cccc(-n2c(=O)n(C3CC3)c(=O)c3c(Nc4ccc(I)cc4F)n(C)c(=O)c(C)c32)c1 [Trametinib] (partner 0.02 µM)"
  recorded_value: 0.188
- compound: "Nc1ccn([C@@H]2O[C@H](CO)[C@@H](O)[C@@H]2O)c(=O)n1 [Cytarabine] + N=C(N)NC(=N)NCCc1ccccc1 [Phenformin] (partner 250 µM)"
  recorded_value: 0.141
- compound: "Nc1ccn([C@@H]2O[C@H](CO)[C@@H](O)[C@@H]2O)c(=O)n1 [Cytarabine] + Nc1ncn([C@H]2C[C@H](O)[C@@H](CO)O2)c(=O)n1 [Decitabine] (partner 2 µM)"
  recorded_value: 0.152
- compound: "COc1cc2nccc(Oc3ccc(NC(=O)Nc4cc(C)on4)c(Cl)c3)c2cc1OC [Tivozanib] + CC1(C)CCC(c2ccc(Cl)cc2)=C(CN2CCN(c3ccc(C(=O)NS(=O)(=O)c4ccc(N[C@H](CCN5CCOCC5)CSc5ccccc5)c(S(=O)(=O)C(F)(F)F)c4)cc3)CC2)C1 [Navitoclax] (partner 0.5 µM)"
  recorded_value: 1.05
- compound: "COc1cc2nccc(Oc3ccc(NC(=O)Nc4cc(C)on4)c(Cl)c3)c2cc1OC [Tivozanib] + NC(=O)Nc1cc(-c2cccc(F)c2)sc1C(=O)N[C@H]1CCCNC1 [AZD7762] (partner 0.2 µM)"
  recorded_value: 0.185
- compound: "Nc1ccn([C@@H]2O[C@H](CO)[C@@H](O)[C@@H]2O)c(=O)n1 [Cytarabine] + CC(C)C[C@H](NC(=O)[C@H](Cc1ccccc1)NC(=O)c1cnccn1)B(O)O [Bortezomib] (partner 0.002 µM)"
  recorded_value: 0.459
- compound: "Nc1ccn([C@@H]2O[C@H](CO)[C@@H](O)[C@@H]2O)c(=O)n1 [Cytarabine] + COc1cc2c(Oc3ccc(NC(=O)C4(C(=O)Nc5ccc(F)cc5)CC4)cc3F)ccnc2cc1OCCCN1CCOCC1 [Foretinib] (partner 0.25 µM)"
  recorded_value: 0.169
- compound: "Nc1ccn([C@@H]2O[C@H](CO)[C@@H](O)[C@@H]2O)c(=O)n1 [Cytarabine] + C[C@@H](Oc1cc(-c2cnn(C3CCNCC3)c2)cnc1N)c1c(Cl)ccc(F)c1Cl [Crizotinib] (partner 1 µM)"
  recorded_value: 0.197
- compound: "COc1cc2nccc(Oc3ccc(NC(=O)Nc4cc(C)on4)c(Cl)c3)c2cc1OC [Tivozanib] + Cc1nc(NC(=O)N2CCC[C@H]2C(N)=O)sc1-c1ccnc(C(C)(C)C(F)(F)F)c1 [Alpelisib] (partner 2 µM)"
  recorded_value: 0.98
